# IC50 per record follows
System: C2C12 myoblasts
assay overview: MTT assay (cytotoxicity)
Assay type: cell-based, mouse
condition details: C2C12 myoblasts, incubated 2 days with compound
Experimental: C2C12 myoblasts were seeded in a 96-well plate at a density of 3×10^3 cells per well. The cells were cultured for one day, and then treated with each compound. Next, the cells were incubated for 2 days, and then treated with a serum-free medium containing 3-(4,5-dimethylthiazol-2-yl)-2,5-diphenyltetrazolium bromide (MTT) for 3 hours. […] The absorbance at 570 nm was measured by a microreader (VersaMax, Molecular Devices) (see FIG. 4).

Consider the reported IC50 for these molecules:
COc1ccc(NC(=NO)c2n[nH]c3ccc(C(=O)N4CCCCC4)cc23)cc1 : > 10 µM
O=C(c1ccc2[nH]nc(NC(=NO)c3ccccc3)c2c1)N1CCCCC1 : > 10 µM
COc1ccc(NC(=NO)c2n[nH]c3ccc(C(=O)O)cc23)cc1 : > 10 µM
CCCN1CCN(C(=O)c2ccc3[nH]nc(C(=NO)Nc4ccccc4)c3c2)CC1 : > 10 µM
O=C(c1ccc2[nH]nc(C(=NO)Nc3ccc(F)cc3)c2c1)N1CCCCC1 : > 10 µM
O=C(O)c1ccc2[nH]nc(C(=NO)Nc3ccc(F)cc3)c2c1 : > 10 µM

QUERY: Test system C2C12 myoblasts; read-out IC50; what value for "O=C(c1ccc2[nH]nc(C(=NO)Nc3ccccc3)c2c1)N1CCCCC1" ?
RESULT: > 10 µM
